experiment: yeast display, Sf9 membrane polyspecificity reagent, FACS + sequencing; frameworks hold sequencing errors

PRIMARY SEQUENCE: QVQLVESGGGLVQAGGSLRLSCAASGSTFVGTALGWYRQAPGKVRELVATISNSGGRTYYADSVKGRFTISRDNAKNTVYLQMNSLKPEDTAVYYCAADHPVFGPGYSFDYWGQGTQVTVSS
polyreactivity (PSR sort gate): low polyreactivity
//
PRIMARY SEQUENCE: QFQLVESGGGLVQAGGSLRISCAASGRIFYRYAMGWYRPAPGKERELVASIRFSVGSTYYADSVKGRFTISRDNAKNTVYLQMNSLKPEDTAVYYCAADYTKYYRRYYYWGQGTQVTVSS
polyreactivity (PSR sort gate): high polyreactivity
//
PRIMARY SEQUENCE: QVQLVESGGGLVQAGGSLRLSCAASGIIFVEYAMGWYRQAPGKERELVARIRYSGGSTYYADSVKGRFTISRDNAKNTVYLQMNSLKPEDTAVYYCNALFPYIYDYWGQGTQVTVSS
polyreactivity (PSR sort gate): low polyreactivity
//
PRIMARY SEQUENCE: QVLLQESGGGLVQAGGSLRLSCAASGSIFLFYTMGWYRQAPVKEREFVAGITLGTTTYNADSVKGRFTISRDNVKNTVYLQMNSLKPEDTAVYYCAVAVGHYTEFWYWGQGTQVTMSS
polyreactivity (PSR sort gate): high polyreactivity
//
PRIMARY SEQUENCE: QVQLVESGGGLVQAGGSLRLSCAASGRTFSYNAMGWYRQAPGKERELVAAINGDGGSTYYADSVKGRFTISRDNAKNTVYLQMNSLKPEDTAVYYCNRPRIYRYGYWGQGTQVTVSS
polyreactivity (PSR sort gate): high polyreactivity
